target: human GLP-1 receptor (human, UniProt P43220 24-463); assay: cell-based or functional assay
This listing pairs binders with measured GLP-1 activity (EC50, pM); CRE luciferase reporter.
observable: GLP-1 activity (EC50, pM); CRE luciferase reporter

>  <binder>
Compound 39 (ligand, Moiety A (HOOC-(CH2)16-CO-gGlu-2XADO) on 71K and 242K of fusion polypeptide) HGEGTFTSDVSSYLEEQAAREFIAWLVRGGGGGGGSGGGGSGGGGSGGGGSGGGGSGGGGSGGGGSGGGGKHPIPDSSPLLQFGGQVRQRYLYTDDAQQTEAHLEIREDGTVGGAADQSPESLLQLRALRPGVIQILGVRTSRFLCQRPDGALYGSLHFDPEACSFRELLLEDGYNVYQSEAHGLPLHLPGQRSPHRDPAPRGPARFLPLPGLPPALPEPPGILAPQPPDVGSSDPLSLVGKSQGRSPSYES

>  <obs.value>
12.6 pM

$$$$
>  <binder>
Compound 72 (ligand, Moiety B (HOOC-(CH2)20-CO-gGlu-2XADO-EDA-CO-CH2) on 62C and 282C of fusion polypeptide) HGEGTFTSDVSSYLEEQAAKEFIAWLVKGGGGAQPGAQPGAQPGAQPGAQPGAQPGAQPGQCPGAQPGAQPGAQPGAQPGAQPGAQPGAQPGAQPGAQPGAQPGAQPGAQPHPIPDSSPLLQFGGQVRQRYLYTDDAQQTEAHLEIREDGTVGGAADQSPESLLQLKALKPGVIQILGVKTSRFLCQRPDGALYGSLHFDPEACSFRELLLEDGYNVYQSEAHGLPLHLPGQKSPHRDPAPRGPARFLPLPGLPPALPEPPGILAPQPPDVGSSDPLSLVGCSQGRSPSYES

>  <obs.value>
16.5 pM

$$$$
>  <binder>
Compound 54 (ligand, Moiety B (HOOC-(CH2)20-CO-gGlu-2XADO-EDA-CO-CH2) on 51C and 231C of fusion polypeptide) HGEGTFTSDVSSYLEEQAAKEFIAWLVRGGGGGGGSGGGGSGGGGSGGGGCHPIPDSSPLLQFGGQVRQRYLYTDDAQQTEAHLEIREDGTVGGAADQSPESLLQLKALKPGVIQILGVKTSRFLCQRPDGALYGSLHFDPEACSFRELLLEDGYNVYQSEAHGLPLHLPGQKSPHRDPAPRGPARFLPLPGLPPALPEPPGILAPQPPDVGSSDPLSLVGGSQGRSPSYCS

>  <obs.value>
19 pM

$$$$
>  <binder>
Compound 50 (ligand, Moiety A (HOOC-(CH2)16-CO-gGlu-2XADO) on 51K and 233K of fusion polypeptide) HGEGTFTSDVSSYLEEQAAREFIAWLVRGGGGGGGSGGGGSGGGGSGGGGKHPIPDSSPLLQFGGQVRQRYLYTDDAQQTEAHLEIREDGTVGGAADQSPESLLQLRALRPGVIQILGVRTSRFLCQRPDGALYGSLHFDPEACSFRELLLEDGYNVYQSEAHGLPLHLPGQRSPHRDPAPRGPARFLPLPGLPPALPEPPGILAPQPPDVGSSDPLSLVGGSQGRSPSYESK

>  <obs.value>
15.4 pM

$$$$
